Entries and their inhibition at 1 µM values follow.
- Target or test system: AURKB (Aurora B) (Homo sapiens, UniProt Q96GD4)
- Sequence (Q96GD4 whole entry): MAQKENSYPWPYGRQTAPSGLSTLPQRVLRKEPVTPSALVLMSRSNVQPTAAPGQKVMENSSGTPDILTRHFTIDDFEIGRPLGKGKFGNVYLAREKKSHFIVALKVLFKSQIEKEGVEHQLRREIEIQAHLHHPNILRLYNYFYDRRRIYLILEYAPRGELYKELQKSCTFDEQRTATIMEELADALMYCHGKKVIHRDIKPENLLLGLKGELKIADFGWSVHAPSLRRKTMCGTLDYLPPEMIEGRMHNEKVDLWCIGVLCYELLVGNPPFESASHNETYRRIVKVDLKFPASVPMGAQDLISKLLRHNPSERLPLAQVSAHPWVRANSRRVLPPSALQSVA
- Assay name: Tyrosine kinase inhibition assay
- Type: biochemical
- Recorded conditions: single concentration 1.0 μM, read-out: percent inhibition
Field: numeric (%). Do not append units.

See these solved cases before continuing.
{"columns": ["Molecule", "Target or test system", "Value observed"],
 "data": [
  ["COc1cc2nccc(Oc3ccc(NC(=O)C4(C(=O)Nc5ccc(F)cc5)CC4)cc3F)c2cc1Oc1ccc(N)cc1F", "AURKB (Aurora B) (Homo sapiens, UniProt Q96GD4)", 67],
  ["COc1cc2nccc(Oc3ccc(NC(=O)C4(NC(=O)c5ccc(F)cc5)CC4)cc3F)c2cc1OC", "AURKB (Aurora B) (Homo sapiens, UniProt Q96GD4)", 99],
  ["COc1cc2nccc(Oc3ccc(NC(=O)C4(C(=O)Nc5ccc(F)cc5)CC4)cc3)c2cc1OC [Cabozantinib, reference compound]", "AURKB (Aurora B) (Homo sapiens, UniProt Q96GD4)", 84],
  ["COc1cc2nccc(Oc3ccc(NC(=O)C4(NC(=O)c5ccc(F)cc5)CC4)cc3F)c2cc1Oc1ccc(N)cc1F", "AURKB (Aurora B) (Homo sapiens, UniProt Q96GD4)", 83]
]}

Proceed to the following item.
Entry `COc1cc2nccc(Oc3ccc(NC(=O)C4(NC(=O)c5ccc(F)cc5)CC4)cc3F)c2cc1Oc1c(F)cc(N)cc1F` , system AURKB (Aurora B) (Homo sapiens, UniProt Q96GD4): what inhibition at 1 µM was measured? 84

###

- Target or test system: JAK3 (Homo sapiens, UniProt P52333)
- Sequence (P52333 whole entry): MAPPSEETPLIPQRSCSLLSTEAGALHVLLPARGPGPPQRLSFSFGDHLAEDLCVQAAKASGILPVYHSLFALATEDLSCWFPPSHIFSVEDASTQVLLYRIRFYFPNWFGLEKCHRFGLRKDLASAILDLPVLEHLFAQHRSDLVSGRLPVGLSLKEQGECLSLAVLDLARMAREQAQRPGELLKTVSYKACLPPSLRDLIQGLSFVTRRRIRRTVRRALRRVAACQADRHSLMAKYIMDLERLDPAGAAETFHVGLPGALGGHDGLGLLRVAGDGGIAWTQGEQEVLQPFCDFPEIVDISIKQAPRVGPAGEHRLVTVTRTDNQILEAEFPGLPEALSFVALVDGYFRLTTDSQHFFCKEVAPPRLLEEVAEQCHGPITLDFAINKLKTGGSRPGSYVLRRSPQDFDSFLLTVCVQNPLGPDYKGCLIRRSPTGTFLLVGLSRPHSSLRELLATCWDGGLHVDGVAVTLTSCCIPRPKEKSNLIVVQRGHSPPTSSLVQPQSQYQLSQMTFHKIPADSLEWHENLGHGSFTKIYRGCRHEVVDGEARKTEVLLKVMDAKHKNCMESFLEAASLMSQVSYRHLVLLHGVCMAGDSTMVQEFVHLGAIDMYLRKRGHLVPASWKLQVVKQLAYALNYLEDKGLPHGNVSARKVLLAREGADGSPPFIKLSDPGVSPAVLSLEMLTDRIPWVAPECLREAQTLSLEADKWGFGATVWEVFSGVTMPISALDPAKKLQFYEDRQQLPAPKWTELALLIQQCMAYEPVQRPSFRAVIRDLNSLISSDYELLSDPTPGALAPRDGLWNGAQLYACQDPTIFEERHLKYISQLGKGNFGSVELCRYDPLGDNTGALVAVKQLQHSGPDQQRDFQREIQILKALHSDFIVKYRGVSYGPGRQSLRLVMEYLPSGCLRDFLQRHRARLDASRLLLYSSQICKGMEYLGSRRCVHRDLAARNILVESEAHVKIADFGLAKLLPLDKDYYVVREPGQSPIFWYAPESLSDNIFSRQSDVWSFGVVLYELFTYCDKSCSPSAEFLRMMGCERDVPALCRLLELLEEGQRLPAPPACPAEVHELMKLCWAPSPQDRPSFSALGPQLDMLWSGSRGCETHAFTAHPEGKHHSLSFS
- Assay name: Tyrosine kinase inhibition assay
- Format: biochemical
- Recorded conditions: single concentration 1.0 μM, read-out: percent inhibition
- Method: Tyrosine kinase inhibition assays were performed at ThermoFisher Life Technologies (Madison, WI, USA) using standard protocols (SelectScreen Biochemical Profiling Service, Thermo Fisher Scientific). ATP concentrations used were at the apparent Km. […] The apparent ATP Km was previously determined using a Z′-LYTE assay. […] The inhibition activities of compounds were determined in biochemical assays using single concentration (1.0 μM) measurements. […]
Quantity: inhibition at 1 µM (%)
Field: numeric (%). Do not append units.

See these solved cases before continuing.
{"columns": ["Compound", "Display unit", "inhibition at 1 µM"],
 "data": [
  ["COc1cc2nccc(Oc3ccc(NC(=O)C4(NC(=O)c5ccc(F)cc5)CC4)cc3F)c2cc1Oc1ccc(N)cc1F", "%", 9],
  ["COc1cc2nccc(Oc3ccc(NC(=O)C4(C(=O)Nc5ccc(F)cc5)CC4)cc3)c2cc1OC [Cabozantinib, reference compound]", "%", 9],
  ["COc1cc2nccc(Oc3ccc(NC(=O)C4(NC(=O)c5ccc(F)cc5)CC4)cc3F)c2cc1OC", "%", 11],
  ["COc1cc2nccc(Oc3ccc(NC(=O)C4(NC(=O)c5ccc(F)cc5)CC4)cc3F)c2cc1Oc1c(F)cc(N)cc1F", "%", 21]
]}

I am curious: what inhibition at 1 µM value has been reported for `COc1cc2nccc(Oc3ccc(NC(=O)C4(C(=O)Nc5ccc(F)cc5)CC4)cc3F)c2cc1Oc1ccc(N)cc1F` ? 17

###

- Target or test system: AURKA (Aurora A) (Homo sapiens)
- Sequence (O14965 whole entry): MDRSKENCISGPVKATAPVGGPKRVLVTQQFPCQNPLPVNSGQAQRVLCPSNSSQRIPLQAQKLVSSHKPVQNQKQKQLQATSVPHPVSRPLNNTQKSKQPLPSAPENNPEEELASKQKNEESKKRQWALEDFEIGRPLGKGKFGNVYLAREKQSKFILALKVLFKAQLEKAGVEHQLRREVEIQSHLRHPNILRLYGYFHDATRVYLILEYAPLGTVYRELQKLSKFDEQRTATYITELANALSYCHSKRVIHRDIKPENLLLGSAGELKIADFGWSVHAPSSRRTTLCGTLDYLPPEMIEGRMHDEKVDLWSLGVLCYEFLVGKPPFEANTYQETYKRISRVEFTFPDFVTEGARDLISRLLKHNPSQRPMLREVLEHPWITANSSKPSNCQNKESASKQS
- Assay name: Tyrosine kinase inhibition assay
- Type: biochemical
- Recorded conditions: single concentration 1.0 μM, read-out: percent inhibition
Quantity: inhibition at 1 µM (%)
Field: numeric (%). Do not append units.

{"columns": ["Compound", "Display unit", "inhibition at 1 µM"],
 "data": [
  ["COc1cc2nccc(Oc3ccc(NC(=O)C4(NC(=O)c5ccc(F)cc5)CC4)cc3F)c2cc1Oc1c(F)cc(N)cc1F", "%", 89],
  ["COc1cc2nccc(Oc3ccc(NC(=O)C4(C(=O)Nc5ccc(F)cc5)CC4)cc3F)c2cc1Oc1ccc(N)cc1F", "%", 55],
  ["COc1cc2nccc(Oc3ccc(NC(=O)C4(C(=O)Nc5ccc(F)cc5)CC4)cc3)c2cc1OC [Cabozantinib, reference compound]", "%", 55],
  ["COc1cc2nccc(Oc3ccc(NC(=O)C4(NC(=O)c5ccc(F)cc5)CC4)cc3F)c2cc1Oc1ccc(N)cc1F", "%", 92]
]}

Proceed to the following item.
I am curious: what inhibition at 1 µM value has been reported for `COc1cc2nccc(Oc3ccc(NC(=O)C4(NC(=O)c5ccc(F)cc5)CC4)cc3F)c2cc1OC` ? 75

###

Listed here: molecules with reported pIC50 for FER (Homo sapiens).
Worth noting: pIC50 values are minus log10 of concentrations stated in mol/L.

Entry COc1cc2nccc(Oc3ccc(NC(=O)C4(C(=O)Nc5ccc(F)cc5)CC4)cc3)c2cc1OC [Cabozantinib, reference compound] , system FER (Homo sapiens): what pIC50 was measured? 6.37

Entry COc1cc2nccc(Oc3ccc(NC(=O)C4(C(=O)Nc5ccc(F)cc5)CC4)cc3F)c2cc1Oc1ccc(N)cc1F [Cbo-23] , system FER (Homo sapiens): what pIC50 was measured? 7.61

Entry CNC(=O)c1cc2c(Oc3ccc(NC(=O)C4(C(=O)Nc5ccc(F)cc5)CC4)cc3)ccnc2cc1OC [Zanzalintinib, reference compound] , system FER (Homo sapiens): what pIC50 was measured? 6.58

###

Entries and their inhibition at 1 µM values follow.
- Target or test system: NTRK3 (TRKC) (Homo sapiens, UniProt Q16288)
- Sequence (Q16288 32-839): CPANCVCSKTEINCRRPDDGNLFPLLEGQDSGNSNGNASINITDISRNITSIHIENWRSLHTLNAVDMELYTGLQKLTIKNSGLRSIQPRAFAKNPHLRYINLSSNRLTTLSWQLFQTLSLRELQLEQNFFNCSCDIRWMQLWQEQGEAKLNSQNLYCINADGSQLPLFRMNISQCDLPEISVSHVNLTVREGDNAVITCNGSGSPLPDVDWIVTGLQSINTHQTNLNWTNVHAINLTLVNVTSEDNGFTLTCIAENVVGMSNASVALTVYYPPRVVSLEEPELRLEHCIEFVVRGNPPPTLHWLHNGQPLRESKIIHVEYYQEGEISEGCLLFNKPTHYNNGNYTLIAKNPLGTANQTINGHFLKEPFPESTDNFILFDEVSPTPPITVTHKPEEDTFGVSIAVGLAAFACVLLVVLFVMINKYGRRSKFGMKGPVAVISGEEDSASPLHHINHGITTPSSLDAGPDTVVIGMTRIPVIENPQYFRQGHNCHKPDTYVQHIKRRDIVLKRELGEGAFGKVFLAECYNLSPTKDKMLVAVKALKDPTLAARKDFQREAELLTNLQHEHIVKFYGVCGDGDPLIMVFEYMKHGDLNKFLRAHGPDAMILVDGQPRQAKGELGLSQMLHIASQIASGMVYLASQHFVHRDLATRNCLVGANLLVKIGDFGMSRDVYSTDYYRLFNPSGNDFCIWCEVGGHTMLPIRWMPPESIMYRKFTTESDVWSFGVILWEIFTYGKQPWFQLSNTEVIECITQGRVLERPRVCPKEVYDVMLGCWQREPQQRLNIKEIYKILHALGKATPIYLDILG
- Assay name: Tyrosine kinase inhibition assay
- Type: biochemical
- Recorded conditions: single concentration 1.0 μM, read-out: percent inhibition
Field: numeric (%). Do not append units.

{"columns": ["Compound", "Display unit", "inhibition at 1 µM"],
 "data": [
  ["COc1cc2nccc(Oc3ccc(NC(=O)C4(NC(=O)c5ccc(F)cc5)CC4)cc3F)c2cc1OC [Cbo-02]", "%", 58],
  ["COc1cc2nccc(Oc3ccc(NC(=O)C4(C(=O)Nc5ccc(F)cc5)CC4)cc3)c2cc1OC [Cabozantinib, reference compound]", "%", 97],
  ["COc1cc2nccc(Oc3ccc(NC(=O)C4(C(=O)Nc5ccc(F)cc5)CC4)cc3F)c2cc1Oc1ccc(N)cc1F [Cbo-23]", "%", 98],
  ["COc1cc2nccc(Oc3ccc(NC(=O)C4(NC(=O)c5ccc(F)cc5)CC4)cc3F)c2cc1Oc1ccc(N)cc1F [Cbo-10]", "%", 89]
]}

Proceed to the following item.
I am curious: what inhibition at 1 µM value has been reported for COc1cc2nccc(Oc3ccc(NC(=O)C4(NC(=O)c5ccc(F)cc5)CC4)cc3F)c2cc1Oc1c(F)cc(N)cc1F [Cbo-14] ? 98

###

- System: MDA-MB-453 cells
- Assay name: In vitro cytotoxicity assay (MTT, 72 h)
- Format: cell-based
- Recorded conditions: Homo sapiens, growth inhibition
- Description: Six different cell lines were used, including human breast cancer cell lines MDA-MB-231 (6×10^3) and MDA-MB-453 (2.4×10^4), human colorectal cell line SW48 (2.4×10^4), human breast epithelial cell line M10 (6×10^3), human cancer cell line A549 (1.4×10^3), and murine colorectal carcinoma tumors CT26 (6×10^3), which were seeded in a 96-well plate. […] After 72 h, MTT assay (Cayman™) was used to determine the cellular viability.
Entries and their IC50 values follow.
Field: numeric (µM). Do not append units.

{"columns": ["Compound", "Target or test system", "Quantity", "Value observed"],
 "data": [
  ["COc1cc2nccc(Oc3ccc(N(C(=O)C4(C(N)=O)CC4)c4ccc(F)cc4)cc3F)c2cc1OC", "MDA-MB-453 cells", "IC50", 14.1]
]}

I am curious: what IC50 value has been reported for CNC(=O)c1cc2c(Oc3ccc(NC(=O)C4(C(=O)Nc5ccc(F)cc5)CC4)cc3)ccnc2cc1OC [Zanzalintinib, reference compound] ? 22.6

I am curious: what IC50 value has been reported for `COc1cc2nccc(Oc3ccc(NC(=O)C4(NC(=O)c5ccc(F)cc5)CC4)cc3F)c2cc1Oc1ccc(N)cc1F` ? 4.67

I am curious: what IC50 value has been reported for `COc1cc2nccc(Oc3ccc(NC(=O)C4(C(=O)Nc5ccc(F)cc5)CC4)cc3F)c2cc1Oc1ccc(N)cc1F` ? 1.71

I am curious: what IC50 value has been reported for `COc1cc2nccc(Oc3ccc(NC(=O)C4(NC(=O)c5ccc(F)cc5)CC4)cc3F)c2cc1Oc1c(F)cc(N)cc1F` ? 2.68

I am curious: what IC50 value has been reported for `COc1cc2nccc(Oc3ccc(NC(=O)C4(NC(=O)c5ccc(F)cc5)CC4)cc3F)c2cc1Oc1ccc(N)cc1` ? 8.92

I am curious: what IC50 value has been reported for COc1cc2nccc(Oc3ccc(NC(=O)C4(C(=O)Nc5ccc(F)cc5)CC4)cc3)c2cc1OC [Cabozantinib, reference compound] ? 20.5

I am curious: what IC50 value has been reported for COc1cc2nccc(Oc3ccc(NC(=O)C4(C(=O)Nc5ccc(F)cc5)CC4)cc3F)c2cc1C(=O)NC(C)CN (centres unmarked) ? 17
